Biological target: Platelet-activating factor acetylhydrolase 2, cytoplasmic (Mus musculus) (UniProt Q8VDG7)
Sequence (Q8VDG7 whole entry, looked up): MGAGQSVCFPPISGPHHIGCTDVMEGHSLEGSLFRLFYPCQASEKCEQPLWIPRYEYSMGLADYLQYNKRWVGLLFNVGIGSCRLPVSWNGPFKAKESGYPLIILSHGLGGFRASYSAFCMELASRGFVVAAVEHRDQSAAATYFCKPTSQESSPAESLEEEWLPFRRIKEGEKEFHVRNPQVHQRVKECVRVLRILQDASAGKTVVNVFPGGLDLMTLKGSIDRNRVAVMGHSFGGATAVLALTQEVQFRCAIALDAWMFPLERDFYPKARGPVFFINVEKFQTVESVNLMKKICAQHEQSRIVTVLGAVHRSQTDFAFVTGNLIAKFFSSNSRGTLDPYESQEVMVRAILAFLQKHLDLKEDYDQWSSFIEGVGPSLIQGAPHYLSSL
Experiment: competitive ABPP of PAFAH2 versus anti-target hydrolases – cell lysate, fluorescence, gel-based ABPP, BW5147 T-cell proteome, powder samples, late-stage follow-up (AID 504513);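 note: 0% = DMSO-only band intensity and 100% = blank gel background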
Details: FP-Rh gel ABPP, PAFAH2, at 1 µM, stronger effect = higher value

| molSmiles | inhibition, % |
| --- | --- |
| O=C(N1CCOCC1)n1ncc(C(O)(c2ccccc2)c2ccccc2)n1 | 50 |
| CN1CCN(C(=O)n2ccnn2)CC1 | 0 |
| O=C(N1CCOCC1)n1ncc(-c2ccc(OC(F)(F)F)cc2)n1 | 50 |
| O=C(N1CCCC1)n1ncc(-c2ccc(-c3ccccc3)cc2)n1 | 100 |
| O=C(N1CCOCC1)n1ncc(-c2cc(F)cc(F)c2)n1 | 100 |
| COc1ccc2cc(-c3cnn(C(=O)N4CCCC4)n3)ccc2c1 | 100 |
| O=C(N1CCCC1)n1ncc(-c2ccccc2)n1 | 100 |
| O=C(N1CCCC1)n1ccnn1 | 100 |
| O=C(N1CCCC1)n1ncc(-c2ccc(Oc3ccccc3)cc2)n1 | 100 |
| C=CCN(CC=C)C(=O)n1ccnn1 | 0 |
| O=C(N1CCCC1)n1ncc(-c2ccc(OC(F)(F)F)cc2)n1 | 100 |
| O=C(N1CCOCC1)n1ncc(-c2ccccc2)n1 | 75 |

----------
Recorded inhibition values for a group of compounds are listed next.
Test system: ABHD11
Experiment: competitive ABPP of PAFAH2 versus anti-target hydrolases – cell lysate, fluorescence, gel-based ABPP, BW5147 T-cell proteome, powder samples, late-stage follow-up (AID 504513);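 note: 0% = DMSO-only band intensity and 100% = blank gel background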
Settings: BW5147 mouse T-cell proteome, FP-Rh gel ABPP, inhibition, at 0.02 µM, stronger effect = higher value

| molSmiles | inhibition [%] |
| --- | --- |
| C=CCN(CC=C)C(=O)n1ccnn1 | 0 |
| CCN(CC)C(=O)n1ccnn1 | 0 |
| O=C(N1CCOCC1)n1ccnn1 | 0 |
| O=C(N1CCCCC1)n1ccnn1 | 0 |
| CN(C)C(=O)n1ccnn1 | 0 |
| O=C(N1CCOCC1)n1ncc(-c2ccccc2)n1 | 50 |
| O=C(N1CCOCC1)n1ncc(-c2cc(F)cc(F)c2)n1 | 50 |
| COc1ccc2cc(-c3cnn(C(=O)N4CCCC4)n3)ccc2c1 | 0 |
| O=C(N1CCOCC1)n1ncc(C(O)(c2ccccc2)c2ccccc2)n1 | 25 |
| O=C(n1ccnn1)n1c2ccccc2c2ccccc21 | 0 |
| CN1CCN(C(=O)n2ccnn2)CC1 | 0 |
| O=C(N1CCCC1)n1ncc(-c2ccc(Oc3ccccc3)cc2)n1 | 0 |
| O=C(N1CCCC1)n1ncc(-c2ccc(OC(F)(F)F)cc2)n1 | 0 |
| O=C(N1CCCC1)n1ncc(-c2ccc(-c3ccccc3)cc2)n1 | 0 |
| O=C(N1CCCC1)n1ccnn1 | 0 |
| O=C(N(c1ccccc1)c1ccccc1)n1ccnn1 | 0 |
| CN(C(=O)n1ccnn1)c1ccccc1 | 0 |
| O=C(N1CCCC1)n1ncc(-c2ccccc2)n1 | 0 |
| O=C(N1CCCC1)n1ncc(C(O)(c2ccccc2)c2ccccc2)n1 | 0 |
| O=C(N1CCOCC1)n1ncc(-c2ccc(OC(F)(F)F)cc2)n1 | 25 |

----------
Test system: ABHD11
Assay: competitive ABPP of PAFAH2 versus anti-target hydrolases – cell lysate, fluorescence, gel-based ABPP, BW5147 T-cell proteome, powder samples, late-stage follow-up (AID 504513);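 note: 0% = DMSO-only band intensity and 100% = blank gel background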
Conditions: BW5147 mouse T-cell proteome, FP-Rh gel ABPP, inhibition, at 0.2 µM, stronger effect = higher value
Recorded inhibition values for a group of molecules are listed next.

| molSmiles | resultUnit | inhibition |
| --- | --- | --- |
| O=C(N1CCCC1)n1ncc(C(O)(c2ccccc2)c2ccccc2)n1 | % | 100 |
| O=C(N1CCOCC1)n1ncc(C(O)(c2ccccc2)c2ccccc2)n1 | % | 100 |
| CN(C(=O)n1ccnn1)c1ccccc1 | % | 0 |
| O=C(N1CCCC1)n1ccnn1 | % | 0 |
| O=C(n1ccnn1)n1c2ccccc2c2ccccc21 | % | 0 |
| O=C(N1CCOCC1)n1ncc(-c2cc(F)cc(F)c2)n1 | % | 100 |
| O=C(N1CCCC1)n1ncc(-c2ccc(-c3ccccc3)cc2)n1 | % | 0 |
| O=C(N1CCCCC1)n1ccnn1 | % | 0 |
| COc1ccc2cc(-c3cnn(C(=O)N4CCCC4)n3)ccc2c1 | % | 0 |
| O=C(N1CCOCC1)n1ncc(-c2ccc(OC(F)(F)F)cc2)n1 | % | 100 |
| O=C(N1CCCC1)n1ncc(-c2ccccc2)n1 | % | 100 |
| C=CCN(CC=C)C(=O)n1ccnn1 | % | 0 |
| O=C(N1CCOCC1)n1ncc(-c2ccccc2)n1 | % | 100 |
| O=C(N(c1ccccc1)c1ccccc1)n1ccnn1 | % | 50 |
| O=C(N1CCCC1)n1ncc(-c2ccc(OC(F)(F)F)cc2)n1 | % | 50 |
| O=C(N1CCOCC1)n1ccnn1 | % | 50 |
| CN(C)C(=O)n1ccnn1 | % | 0 |
| CCN(CC)C(=O)n1ccnn1 | % | 0 |
| CN1CCN(C(=O)n2ccnn2)CC1 | % | 0 |
| O=C(N1CCCC1)n1ncc(-c2ccc(Oc3ccccc3)cc2)n1 | % | 0 |

----------
System: LYPLA1
Assay: competitive ABPP of PAFAH2 versus anti-target hydrolases – cell lysate, fluorescence, gel-based ABPP, BW5147 T-cell proteome, powder samples, late-stage follow-up (AID 504513);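 note: 0% = DMSO-only band intensity and 100% = blank gel background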
Details: BW5147 mouse T-cell proteome, FP-Rh gel ABPP, inhibition, at 0.2 µM, stronger effect = higher value

| molSmiles | inhibition, % |
| --- | --- |
| COc1ccc2cc(-c3cnn(C(=O)N4CCCC4)n3)ccc2c1 | 0 |
| O=C(N1CCCC1)n1ncc(-c2ccccc2)n1 | 0 |
| C=CCN(CC=C)C(=O)n1ccnn1 | 0 |
| O=C(N1CCCC1)n1ncc(-c2ccc(OC(F)(F)F)cc2)n1 | 0 |
| CN(C(=O)n1ccnn1)c1ccccc1 | 0 |
| O=C(N1CCCC1)n1ncc(-c2ccc(Oc3ccccc3)cc2)n1 | 0 |
| CCN(CC)C(=O)n1ccnn1 | 0 |

----------
Tested on: ABHD11
Assay: competitive ABPP of PAFAH2 versus anti-target hydrolases – cell lysate, fluorescence, gel-based ABPP, BW5147 T-cell proteome, powder samples, late-stage follow-up (AID 504513);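 note: 0% = DMSO-only band intensity and 100% = blank gel background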
Conditions: BW5147 mouse T-cell proteome, FP-Rh gel ABPP, at 1 µM
Calls of active or inactive are those of the source.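 The calls were made as follows: active = PAFAH2 inhibition at least 50% at 0.2 µM with under 50% on each related off-target enzyme; inactive = the rest, including PAFAH2 hits that also hit off-targets.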
Outcomes: T for active, F for inactive

| molSmiles | label |
| --- | --- |
| O=C(n1ccnn1)n1c2ccccc2c2ccccc21 | F |
| CN(C(=O)n1ccnn1)c1ccccc1 | F |
| O=C(N1CCOCC1)n1ccnn1 | T |
| O=C(N1CCOCC1)n1ncc(C(O)(c2ccccc2)c2ccccc2)n1 | T |
| O=C(N1CCOCC1)n1ncc(-c2ccc(OC(F)(F)F)cc2)n1 | T |
| O=C(N1CCCC1)n1ncc(-c2ccccc2)n1 | T |
| O=C(N1CCOCC1)n1ncc(-c2ccccc2)n1 | T |
| O=C(N1CCCC1)n1ccnn1 | F |
| COc1ccc2cc(-c3cnn(C(=O)N4CCCC4)n3)ccc2c1 | F |
| O=C(N1CCCC1)n1ncc(-c2ccc(OC(F)(F)F)cc2)n1 | T |
| O=C(N(c1ccccc1)c1ccccc1)n1ccnn1 | T |
| CN1CCN(C(=O)n2ccnn2)CC1 | F |
| O=C(N1CCOCC1)n1ncc(-c2cc(F)cc(F)c2)n1 | T |

----------
Molecular target: Platelet-activating factor acetylhydrolase 2, cytoplasmic (Mus musculus)
Assay: competitive ABPP of PAFAH2 versus anti-target hydrolases – cell lysate, fluorescence, gel-based ABPP, BW5147 T-cell proteome, powder samples, late-stage follow-up (AID 504513);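 note: 0% = DMSO-only band intensity and 100% = blank gel background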
Conditions: FP-Rh gel ABPP, PAFAH2, at 1 µM, stronger effect = higher value
The source made the active and inactive calls.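 Rule for the calls: active = PAFAH2 inhibition at least 50% at 0.2 µM with under 50% on each related off-target enzyme; inactive = the rest, including PAFAH2 hits that also hit off-targets.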
Recorded inhibition values for a group of compounds are listed next.

| molSmiles | testedOn | inhibition |
| --- | --- | --- |
| O=C(N1CCOCC1)n1ccnn1 | Platelet-activating factor acetylhydrolase 2, cytoplasmic (Mus musculus) | 100% (inactive) |
| O=C(N1CCCCC1)n1ccnn1 | Platelet-activating factor acetylhydrolase 2, cytoplasmic (Mus musculus) | 50% (inactive) |
| O=C(N(c1ccccc1)c1ccccc1)n1ccnn1 | Platelet-activating factor acetylhydrolase 2, cytoplasmic (Mus musculus) | 0% (inactive) |
| CCN(CC)C(=O)n1ccnn1 | Platelet-activating factor acetylhydrolase 2, cytoplasmic (Mus musculus) | 0% (inactive) |
| CN(C(=O)n1ccnn1)c1ccccc1 | Platelet-activating factor acetylhydrolase 2, cytoplasmic (Mus musculus) | 0% (inactive) |
| O=C(n1ccnn1)n1c2ccccc2c2ccccc21 | Platelet-activating factor acetylhydrolase 2, cytoplasmic (Mus musculus) | 0% (inactive) |
| CN(C)C(=O)n1ccnn1 | Platelet-activating factor acetylhydrolase 2, cytoplasmic (Mus musculus) | 0% (inactive) |
| O=C(N1CCCC1)n1ncc(C(O)(c2ccccc2)c2ccccc2)n1 | Platelet-activating factor acetylhydrolase 2, cytoplasmic (Mus musculus) | 100% |
